Catalogue of log10(Km) values
- Tested on: Acinetobacter baumannii
- assay.notes: Activity of Acinetobacter baumannii AC-54/97 metallo-beta-lactamase IMP-2 expressed in Escherichia coli DH5alpha
Could you please treat all values as log10 of Km in µM?

Examples with their reported log10(Km) follow.
{"smiles.data": "C[C@@H](O)[C@H]1C(=O)N2C(C(=O)O)=C(SCCNC=N)C[C@H]12", "log10(Km)": 1.38}
{"smiles.data": "CC(C)(O/N=C(\\C(=O)N[C@@H]1C(=O)N2C(C(=O)[O-])=C(C[n+]3ccccc3)CS[C@H]12)c1csc(N)n1)C(=O)O", "log10(Km)": 2.05}
{"smiles.data": "C[C@@H](O)[C@H]1C(=O)N2C(C(=O)O)=C(S[C@@H]3CN[C@H](C(=O)N(C)C)C3)[C@H](C)[C@H]12", "log10(Km)": -0.52}
{"smiles.data": "CO[C@@]1(NC(=O)Cc2cccs2)C(=O)N2C(C(=O)O)=C(COC(N)=O)CS[C@@H]21", "log10(Km)": 0.85}
{"smiles.data": "CC1(C)S[C@@H]2[C@H](NC(=O)[C@H](C(=O)O)c3ccsc3)C(=O)N2[C@H]1C(=O)O", "log10(Km)": 2.85}

Kindly review the next compound as well.
Lookup: Need log10(Km), item `CC1(C)S[C@@H]2[C@H](NC(=O)[C@H](N)c3ccc(O)cc3)C(=O)N2[C@H]1C(=O)O`
Found: 2.04

* * *

- Tested on: Acinetobacter baumannii
- assay.notes: Activity of Acinetobacter baumannii AC-54/97 metallo-beta-lactamase IMP-2 expressed in Escherichia coli DH5alpha
observation.type: kcat (s⁻¹)
Only the number, expressed in s⁻¹, is required.

Example cases with answers are listed next.
{"smiles.data": "CC(C)(O/N=C(\\C(=O)N[C@@H]1C(=O)N2C(C(=O)[O-])=C(C[n+]3ccccc3)CS[C@H]12)c1csc(N)n1)C(=O)O", "kcat / s⁻¹": 21}
{"smiles.data": "C[C@@H](O)[C@H]1C(=O)N2C(C(=O)O)=C(S[C@@H]3CN[C@H](C(=O)N(C)C)C3)[C@H](C)[C@H]12", "kcat / s⁻¹": 1}
{"smiles.data": "C[C@@H](O)[C@H]1C(=O)N2C(C(=O)O)=C(SCCNC=N)C[C@H]12", "kcat / s⁻¹": 22}
{"smiles.data": "CC1(C)S[C@@H]2[C@H](NC(=O)[C@H](N)c3ccc(O)cc3)C(=O)N2[C@H]1C(=O)O", "kcat / s⁻¹": 23}
{"smiles.data": "CC1(C)S[C@@H]2[C@H](NC(=O)[C@H](C(=O)O)c3ccsc3)C(=O)N2[C@H]1C(=O)O", "kcat / s⁻¹": 252}

Lookup: Which kcat is reported with Acinetobacter baumannii for this entry: `CO[C@@]1(NC(=O)Cc2cccs2)C(=O)N2C(C(=O)O)=C(COC(N)=O)CS[C@@H]21` ?
Found: 7

* * *

- System: Acinetobacter baumannii
- assay.notes: Ratio of Kcat to Km of Acinetobacter baumannii AC-54/97 metallo-beta-lactamase IMP-2 expressed in Escherichia coli DH5alpha
observation.type: kcat/Km
Keep the answer to the number alone.

Some compounds with recorded kcat/Km:
{"smiles.data": "CC(C)(O/N=C(\\C(=O)N[C@@H]1C(=O)N2C(C(=O)[O-])=C(C[n+]3ccccc3)CS[C@H]12)c1csc(N)n1)C(=O)O", "kcat/Km": 0.19}
{"smiles.data": "CC1(C)S[C@@H]2[C@H](NC(=O)[C@H](C(=O)O)c3ccsc3)C(=O)N2[C@H]1C(=O)O", "kcat/Km": 0.36}
{"smiles.data": "CO[C@@]1(NC(=O)Cc2cccs2)C(=O)N2C(C(=O)O)=C(COC(N)=O)CS[C@@H]21", "kcat/Km": 1}
{"smiles.data": "C[C@@H](O)[C@H]1C(=O)N2C(C(=O)O)=C(S[C@@H]3CN[C@H](C(=O)N(C)C)C3)[C@H](C)[C@H]12", "kcat/Km": 3.3}
{"smiles.data": "C[C@@H](O)[C@H]1C(=O)N2C(C(=O)O)=C(SCCNC=N)C[C@H]12", "kcat/Km": 0.92}

Okay, now this compound:
Lookup: Reported kcat/Km, compound `CC1(C)S[C@@H]2[C@H](NC(=O)[C@H](N)c3ccc(O)cc3)C(=O)N2[C@H]1C(=O)O` : ____
Found: 0.21
